system: 422866-222-R5-J1-PDC complex spheroids viability; assay: Anticancer human tumor 422866-222-R5-J1-PDC patient-derived pancreatic adenocarcinoma cell line growth inhibition [RAS]; details: second compound 1 µM; first compound 3.16 µM; active = viability on the fitted dose curve at most 10% of control; inactive = the rest
Possible outcomes: class 1 = active, class 0 = inactive

Molecule	Group
NC1c2ccccc2OC12CCN(c1cnc3c(N4CCCc5ncccc54)n[nH]c3n1)CC2 (stereo not given) + C#Cc1c(F)ccc2cc(O)cc(-c3ncc4c(N5CC6CCC(C5)N6)nc(OCC56CCCN5CC(F)C6)nc4c3F)c12	class 0
CCC(CC)c1cc(NC2CCC(N)C2)n2nccc2n1 (stereo not given) + C#Cc1c(F)ccc2cc(O)cc(-c3ncc4c(N5CC6CCC(C5)N6)nc(OCC56CCCN5CC(F)C6)nc4c3F)c12	class 0
C[C@@H](NC(=O)c1ncnc(N)c1Cl)c1ncc(C(=O)Nc2cc(C(F)(F)F)c(Cl)cn2)s1 + C#Cc1c(F)ccc2cc(O)cc(-c3ncc4c(N5CC6CCC(C5)N6)nc(OCC56CCCN5CC(F)C6)nc4c3F)c12	class 0
CC(C)NCC(C(=O)N1CCN(c2ncnc3c2C(C)CC3O)CC1)c1ccc(Cl)cc1 (stereo not given) + C=CC(=O)N1CCN(c2nc(OCC3CCCN3C)nc3c(F)c(-c4nc(N)cc(C)c4C(F)(F)F)c(Cl)cc23)C(C)C1	class 0
CC(Nc1ccc2c(c1)OCCn1cc(N3C(=O)OCC3C(F)F)nc1-2)C(N)=O (stereo not given) + C=CC(=O)N1CCN(c2nc(OCC3CCCN3C)nc3c(F)c(-c4nc(N)cc(C)c4C(F)(F)F)c(Cl)cc23)C(C)C1	class 1

* * *

tested on: 422866-222-R5-J1-PDC complex spheroids viability; experiment: Anticancer human tumor 422866-222-R5-J1-PDC cell line growth inhibition [RAS]; conditions: second compound 0.316 µM; first compound 0.1 µM; stronger effect = lower value;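 also: spheroids exposed to compounds for 7 days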;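 as to viability, T/C: 100% = DMSO vehicle control viability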
Attribute: viability, T/C

Compound	Target Of Assay	Result Unit	viability, T/C
C[C@@H](NC(=O)c1ncnc(N)c1Cl)c1ncc(C(=O)Nc2cc(C(F)(F)F)c(Cl)cn2)s1 + C=CC(=O)N1CCN(c2nc(OCC3CCCN3C)nc3c(F)c(-c4nc(N)cc(C)c4C(F)(F)F)c(Cl)cc23)C(C)C1	422866-222-R5-J1-PDC complex spheroids viability	%	24.1
C[C@@H](NC(=O)c1ncnc(N)c1Cl)c1ncc(C(=O)Nc2cc(C(F)(F)F)c(Cl)cn2)s1 + C#Cc1c(F)ccc2cc(O)cc(-c3ncc4c(N5CC6CCC(C5)N6)nc(OCC56CCCN5CC(F)C6)nc4c3F)c12	422866-222-R5-J1-PDC complex spheroids viability	%	67
CCC(CC)c1cc(NC2CCC(N)C2)n2nccc2n1 (stereo not given) + C#Cc1c(F)ccc2cc(O)cc(-c3ncc4c(N5CC6CCC(C5)N6)nc(OCC56CCCN5CC(F)C6)nc4c3F)c12	422866-222-R5-J1-PDC complex spheroids viability	%	85.1
O=C(c1ccc(F)c(F)c1Nc1ccc(I)cc1F)N1CC(O)([C@@H]2CCCCN2)C1 + C=CC(=O)N1CCN(c2nc(OCC3CCCN3C)nc3c(F)c(-c4nc(N)cc(C)c4C(F)(F)F)c(Cl)cc23)C(C)C1	422866-222-R5-J1-PDC complex spheroids viability	%	12.6
Nc1ccn(C2OC(CO)C(O)C2(F)F)c(=O)n1 (stereo not given) + C=CC(=O)N1CCN(c2nc(OCC3CCCN3C)nc3c(F)c(-c4nc(N)cc(C)c4C(F)(F)F)c(Cl)cc23)C(C)C1	422866-222-R5-J1-PDC complex spheroids viability	%	18.1
Cc1nc(N2CCC3(CC2)COC(C)C3N)c(CO)nc1Sc1ccnc(N)c1Cl (stereo not given) + C#Cc1c(F)ccc2cc(O)cc(-c3ncc4c(N5CC6CCC(C5)N6)nc(OCC56CCCN5CC(F)C6)nc4c3F)c12	422866-222-R5-J1-PDC complex spheroids viability	%	40.5
NC1c2ccccc2OC12CCN(c1cnc3c(N4CCCc5ncccc54)n[nH]c3n1)CC2 (stereo not given) + C=CC(=O)N1CCN(c2nc(OCC3CCCN3C)nc3c(F)c(-c4nc(N)cc(C)c4C(F)(F)F)c(Cl)cc23)C(C)C1	422866-222-R5-J1-PDC complex spheroids viability	%	16.6
CC(=O)OC12COC1CC(O)C1(C)C(=O)C(O)C3=C(C)C(OC(=O)C(O)C(NC(=O)OC(C)(C)C)c4ccccc4)CC(O)(C(OC(=O)c4ccccc4)C21)C3(C)C (stereo not given) + C#Cc1c(F)ccc2cc(O)cc(-c3ncc4c(N5CC6CCC(C5)N6)nc(OCC56CCCN5CC(F)C6)nc4c3F)c12	422866-222-R5-J1-PDC complex spheroids viability	%	48.2
CC(C)NCC(C(=O)N1CCN(c2ncnc3c2C(C)CC3O)CC1)c1ccc(Cl)cc1 (stereo not given) + C=CC(=O)N1CCN(c2nc(OCC3CCCN3C)nc3c(F)c(-c4nc(N)cc(C)c4C(F)(F)F)c(Cl)cc23)C(C)C1	422866-222-R5-J1-PDC complex spheroids viability	%	16.4
CC(Nc1ccc2c(c1)OCCn1cc(N3C(=O)OCC3C(F)F)nc1-2)C(N)=O (stereo not given) + C=CC(=O)N1CCN(c2nc(OCC3CCCN3C)nc3c(F)c(-c4nc(N)cc(C)c4C(F)(F)F)c(Cl)cc23)C(C)C1	422866-222-R5-J1-PDC complex spheroids viability	%	11

* * *

test system: 422866-222-R5-J1-PDC complex spheroids viability; test: Anticancer human tumor 422866-222-R5-J1-PDC cell line growth inhibition [RAS]; conditions: second compound 0.03 µM; first compound 0.316 µM; stronger effect = lower value;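 also: spheroids exposed to compounds for 7 days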;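 as to viability, T/C: 100% = DMSO vehicle control viability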
Item-by-item account of viability, T/C
Assay Endpoint: viability, T/C

Molecule	Test Result
C[C@@H](NC(=O)c1ncnc(N)c1Cl)c1ncc(C(=O)Nc2cc(C(F)(F)F)c(Cl)cn2)s1 + CCn1c(-c2cc(N3CCN(C)CC3)cnc2C(C)OC)c2c3cc(ccc31)-c1csc(n1)CC(NC(=O)C1CC1C)C(=O)N1CCCC(N1)C(=O)OCC(C)(C)C2	20.8%
NC1c2ccccc2OC12CCN(c1cnc3c(N4CCCc5ncccc54)n[nH]c3n1)CC2 (stereo not drawn) + CCn1c(-c2cccnc2C(C)OC)c2c3cc(ccc31)N1CCOC(CC(NC(=O)C(C(C)C)N(C)C(=O)C3(F)CCN(C(=O)C#CC(C)(C)N(C)C)CC3)C(=O)N3CCCC(N3)C(=O)OCC(C)(C)C2)C1	14.3%
Nc1ccn(C2OC(CO)C(O)C2(F)F)c(=O)n1 (stereo not drawn) + CCn1c(-c2cccnc2C(C)OC)c2c3cc(ccc31)N1CCOC(CC(NC(=O)C(C(C)C)N(C)C(=O)C3(F)CCN(C(=O)C#CC(C)(C)N(C)C)CC3)C(=O)N3CCCC(N3)C(=O)OCC(C)(C)C2)C1	14.6%
NC1c2ccccc2OC12CCN(c1cnc3c(N4CCCc5ncccc54)n[nH]c3n1)CC2 (stereo not drawn) + CCn1c(-c2cc(N3CCN(C)CC3)cnc2C(C)OC)c2c3cc(ccc31)-c1csc(n1)CC(NC(=O)C1CC1C)C(=O)N1CCCC(N1)C(=O)OCC(C)(C)C2	16.7%
CC(Nc1ccc2c(c1)OCCn1cc(N3C(=O)OCC3C(F)F)nc1-2)C(N)=O (stereo not drawn) + CCn1c(-c2cc(N3CCN(C)CC3)cnc2C(C)OC)c2c3cc(ccc31)-c1csc(n1)CC(NC(=O)C1CC1C)C(=O)N1CCCC(N1)C(=O)OCC(C)(C)C2	9.06%
Nc1ccn(C2OC(CO)C(O)C2(F)F)c(=O)n1 (stereo not drawn) + CCn1c(-c2cc(N3CCN(C)CC3)cnc2C(C)OC)c2c3cc(ccc31)-c1csc(n1)CC(NC(=O)C1CC1C)C(=O)N1CCCC(N1)C(=O)OCC(C)(C)C2	15.8%
CCN1CCN(Cc2ccc(Nc3ncc(F)c(-c4cc(F)c5nc(C)n(C(C)C)c5c4)n3)nc2)CC1 + CCn1c(-c2cc(N3CCN(C)CC3)cnc2C(C)OC)c2c3cc(ccc31)-c1csc(n1)CC(NC(=O)C1CC1C)C(=O)N1CCCC(N1)C(=O)OCC(C)(C)C2	21.8%
CC(C)NCC(C(=O)N1CCN(c2ncnc3c2C(C)CC3O)CC1)c1ccc(Cl)cc1 (stereo not drawn) + CCn1c(-c2cccnc2C(C)OC)c2c3cc(ccc31)N1CCOC(CC(NC(=O)C(C(C)C)N(C)C(=O)C3(F)CCN(C(=O)C#CC(C)(C)N(C)C)CC3)C(=O)N3CCCC(N3)C(=O)OCC(C)(C)C2)C1	12.9%

* * *

The following compounds are listed with their measured pIC50 values.
system: 422866-222-R5-J1-PDC complex spheroids viability; assay: Anticancer human tumor 422866-222-R5-J1-PDC cell line growth inhibition [RAS]; details: curve of first compound; second compound 0.316 µM;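 also: spheroids exposed to compounds for 7 days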
pIC50: −log10 of the molar value.
Assay Endpoint: pIC50

Compound	Test Result
CCc1c2c(nc3ccc(O)cc13)-c1cc3c(c(=O)n1C2)COC(=O)[C@]3(O)CC + C#Cc1c(F)ccc2cc(O)cc(-c3ncc4c(N5CC6CCC(C5)N6)nc(OCC56CCCN5CC(F)C6)nc4c3F)c12	7.02
CCN1CCN(Cc2ccc(Nc3ncc(F)c(-c4cc(F)c5nc(C)n(C(C)C)c5c4)n3)nc2)CC1 + C#Cc1c(F)ccc2cc(O)cc(-c3ncc4c(N5CC6CCC(C5)N6)nc(OCC56CCCN5CC(F)C6)nc4c3F)c12	< 6.00
CCN1CCN(Cc2ccc(Nc3ncc(F)c(-c4cc(F)c5nc(C)n(C(C)C)c5c4)n3)nc2)CC1 + C=CC(=O)N1CCN(c2nc(OCC3CCCN3C)nc3c(F)c(-c4nc(N)cc(C)c4C(F)(F)F)c(Cl)cc23)C(C)C1	> 8.50
C=CC(=O)N1CCN(c2nc(OCC3CCCN3C)nc3c(F)c(-c4nc(N)cc(C)c4C(F)(F)F)c(Cl)cc23)C(C)C1 (stereo not given) + C#Cc1c(F)ccc2cc(O)cc(-c3ncc4c(N5CC6CCC(C5)N6)nc(OCC56CCCN5CC(F)C6)nc4c3F)c12	> 8.50
CC(Nc1ccc2c(c1)OCCn1cc(N3C(=O)OCC3C(F)F)nc1-2)C(N)=O (stereo not given) + C=CC(=O)N1CCN(c2nc(OCC3CCCN3C)nc3c(F)c(-c4nc(N)cc(C)c4C(F)(F)F)c(Cl)cc23)C(C)C1	> 7.50
